Cited source for all entries: patent US4113946A

assay: in vivo; conditions: mouse, po, 100 mg/kg
EXPERIMENTAL ENDPOINT: concentration at 0.5 h (ng/mL)
Numbers only here, please. The scale is ng/mL.

Endpoint output: concentration at 0.5 h of CC1=C(C(=O)O)N2C(=O)[C@@H](NC(=O)C(N)c3ccccc3)[C@H]2CO1 (stereo partly shown) . Value? 19400

---

Please provide measured MIC for the entries that follow.
tested on: S. aureus BX1633-2 A9606; test: M.I.C. by tube dilution, S. aureus BX1633-2 A9606; assay type: cell-based; conditions: Staphylococcus aureus, BX16332A9606, at 10^-2 dil'n; overnight 37° C.
Where a name gives a salt, the structure may show the parent alone.

Endpoint output: MIC of CC1=C(C(=O)O)N2C(=O)[C@@H](NC(=O)[C@H](N)c3ccccc3)[C@H]2CO1 [BC-L9, hydrochloride] . Value? 32 µg/mL

Endpoint output: MIC of CC1=C(C(=O)O)N2C(=O)[C@@H](NC(=O)COc3ccccc3)[C@H]2CO1 (relative stereo) [BC-L8] . Value? 32 µg/mL

Endpoint output: MIC of COC(=O)CC1=C(C(=O)O)N2C(=O)[C@@H](NC(=O)COc3ccccc3)[C@H]2CO1 (relative stereo) [BC-L33] . Value? > 125 µg/mL

Endpoint output: MIC of O=C(COc1ccccc1)NC1C(=O)N2C(C(=O)O)=C(Cc3ccccc3)OCC12 (stereo not drawn) [BC-L17] . Value? > 125 µg/mL

Endpoint output: MIC of O=C(COc1ccccc1)N[C@@H]1C(=O)N2C(C(=O)O)=COC[C@H]12 (relative stereo) [BC-L2] . Value? > 125 µg/mL

Endpoint output: MIC of O=C(COc1ccccc1)NC1C(=O)N2C(C(=O)O)=C(CCc3ccccc3)OCC12 (stereo not drawn) [BC-L54] . Value? > 125 µg/mL
